Tested on: UACC-257 melanoma
protocol-text: NCI-60 one-dose screen, 48 h (100 = growth as untreated, 0 = no growth, -100 = all killed)
measurement-setup: 10 µM unless noted
The panel holds about 83,000 compounds, 20% with a hit somewhere; the sample as a whole holds those more often.
Would you mind telling me the reported growth of each entry?
Give bare numbers, in %.

Some compounds with recorded growth:
Cc1ccc(-c2nn(-c3ccccc3)cc2C=C2C(=O)ON=C2C(C)C)cc1 :: 96.4
COc1ccc(-c2nc(/C=C3\SC(=NCc4ccccc4)NC3=O)c3ccccn23)cc1 :: -17

Give one value of growth per listed compound.
1. COC(=O)/C=C1/SC(=Nc2ccc(C)cc2)N(CCc2c[nH]c3ccc(O)cc23)C1=O
2. N#CC1=C(N)Oc2c(sc3c(F)cccc23)C1c1ccc(F)cc1 (centres undefined)

50.2
60.5

Give one value of growth per listed compound.
1. CCCCCCNC(=O)Oc1ccc(/C(=C(/C)Cc2ccc(OC)cc2)c2ccc(OCCCN(C)C)cc2)cc1
2. COc1cc(OC)cc(C2=C3CC[C@@H]4[C@H](CC[C@]5(C)C(=O)CC[C@@H]45)C3=CC3C(O)c4cccnc4N4C(=O)COC234)c1 (some centres undefined)
3. COc1ccc(OC)c(C(=O)/C=C/c2cc3c(c(OC)c2OC)OCO3)c1
4. O=C(O)c1[nH]c(=O)[nH]c(=O)c1[N+](=O)[O-]
5. Nc1ncnc2c1N=C(c1ccc3c(c1)OCO3)CC(c1cccc(Nc3ccnc4cc(Cl)ccc34)c1)N2 (centres undefined)

[-6.6, 98.1, 72.5, 97.7, 59.3]
